Molecular target: BRD9 (Homo sapiens, UniProt Q9H8M2)
Assay: Degradation of BRD9 (IF), immunofluorescence in MV4-11 cells, 24 hours (Assay Protocol 2)
Type: cell-based
Parameters: A suspension of MV4-11 cells (ATCC CRL-9591) was prepared; host or cells: MV4-11
Details: Assay protocol 2; BRD9 degradation; read-out: DC50
Let's look at some molecules and their measured DC50.

MOLECULE	DC50
COc1cnc(F)c(/C=C(\C#N)C(=O)N2CCc3c(CN4CCN(Cc5c(OC)cc(-c6cn(C)c(=O)c(C)c6C)cc5OC)CC4)cccc3C2C)c1 (mixture of isomers)	1.25 to 10 nM
COc1cc(-c2cn(C)c(=O)c(C)c2C)ccc1OC1CCN(Cc2cccc3c2CCN(C(=O)/C(C#N)=C/C(C)(C)C)C3C(C)C)CC1 (mixture of isomers)	25 to 1000 nM
COc1cc(-c2cn(C)c(=O)c(C)c2C)cc(OC)c1CN1CCN(Cc2cccc3c2CCN(C(=O)/C(C#N)=C/c2ncccc2C(F)(F)F)C3C)CC1 (mixture of isomers)	10 to 25 nM
COc1cc(-c2cn(C)c(=O)c(C)c2C)cc(OC)c1CN1CCN(Cc2cccc3c2CCN(C(=O)/C(C#N)=C/C(C)(C)C)C3C)CC1(C)C (mixture of isomers)	< 1.25 nM

Then there is this molecule:
Sure, the documented DC50 for COc1cc(-c2cn(C)c(=O)c(C)c2C)cc(OC)c1CN1CCN(Cc2cccc3c2CCN(C(=O)/C(C#N)=C/C2CCOC2)C3C)CC1 (mixture of isomers) is 1.25 to 10 nM

---

Biological target: BRD9 (Homo sapiens, UniProt Q9H8M2)
Experiment: Degradation of BRD9 (IF), immunofluorescence in MV4-11 cells, 24 hours (Assay Protocol 2)
Assay type: cell-based
Set-up: A suspension of MV4-11 cells (ATCC CRL-9591) was prepared; host or cells: MV4-11
Settings: Table 4; BRD9 degradation, determined according to Assay Protocol 2; read-out: DC50^2
READOUT NAME: DC50

Solved cases below.
COMPOUND	TESTED ON	DC50
COc1cc(-c2cn(C)c(=O)c(C)c2C)cc(OC)c1CN1CC2CC1CN2C(=O)/C(C#N)=C/c1nccs1 (mixture of isomers) [BRD9i]	BRD9 (Homo sapiens, UniProt Q9H8M2)	< 25 nM
COc1cc(-c2cn(C)c(=O)c(C)c2C)cc(OC)c1CN1CC2CC(C1)N2C(=O)/C(C#N)=C/c1cccc(Br)n1 (mixture of isomers) [BRD9m]	BRD9 (Homo sapiens, UniProt Q9H8M2)	> 200 nM
COc1cc(-c2cn(C)c(=O)c(C)c2C)cc(OC)c1C(=O)N(C)C1CCN(C(=O)/C(C#N)=C/C(C)(C)C)CC1 [BRD9u]	BRD9 (Homo sapiens, UniProt Q9H8M2)	< 25 nM
COc1cc(-c2cn(C)c(=O)c(C)c2C)cc(OC)c1CN1CCN(C(=O)[C@@H]2CN(C(=O)/C(C#N)=C/c3nccs3)C[C@H]2C2CCCCC2)CC1 [Compound B209]	BRD9 (Homo sapiens, UniProt Q9H8M2)	25 to 200 nM
COc1cc(-c2cn(C)c(=O)c(C)c2C)cc(OC)c1CN1CC2CC1CN2C(=O)/C(C#N)=C/c1cccc(Br)n1 (mixture of isomers) [BRD9j]	BRD9 (Homo sapiens, UniProt Q9H8M2)	< 25 nM

For this compound ( COc1cc(-c2cn(C)c(=O)c(C)c2C)cc(OC)c1CN1CCN(C(=O)[C@@H]2CN(C(=O)/C(C#N)=C/C(C)(C)C)C[C@H]2C2CCCCC2)CC1 [Compound B210] ), measured DC50 is 25 to 200 nM

---

Target: UniProt Q9H8M2
Test: Degradation of BRD9 (IF), immunofluorescence in MV4-11 cells, 24 hours (Assay Protocol 2)
Format: cell-based
Parameters: A suspension of MV4-11 cells (ATCC CRL-9591) was prepared; host or cells: MV4-11
Conditions: MV4-11, Assay protocol 2; BRD9 degradation; read-out: Dmax
READOUT NAME: Dmax

Worked cases, Dmax given:
COMPOUND	TESTED ON	Dmax
COc1cc(-c2cn(C)c(=O)c(C)c2C)cc(OC)c1CN(C)Cc1cccc2c1CCN(C(=O)/C(C#N)=C/C(C)(C)C)C2C(C)C (mixture of isomers)	UniProt Q9H8M2	40 to 70%
COc1cc(-c2cn(C)c(=O)c(C)c2C)cc(OC)c1CN1CCN(Cc2cccc3c2CCN(C(=O)/C(C#N)=C/C2(C)CCC2)C3C)C2(CC2)C1 (mixture of isomers)	UniProt Q9H8M2	> 75%
COc1cc(-c2cn(C)c(=O)c(C)c2C)cc(OC)c1CN1CCN(Cc2cccc3c2CCN(C(=O)/C(C#N)=C/C(C)(C)C)[C@H]3C(C)C)C2(CC2)C1 (single isomer, unassigned)	UniProt Q9H8M2	> 75%
COc1cc(-c2cn(C)c(=O)c(C)c2C)cc(OC)c1CN1CCC2(CCN(c3cccc4c3CCN(C(=O)/C(C#N)=C/C(C)(C)C)C4C)C2)C1 (centres unmarked)	UniProt Q9H8M2	40 to 70%

Then there is this compound:
# Dmax (compound: COc1cc(-c2cn(C)c(=O)c(C)c2C)cc(OC)c1CN1CCN(CC(=O)NCCOc2ccc3c(c2)C(C)N(C(=O)/C(C#N)=C/c2nccs2)CC3)CC1 (mixture of isomers) ) is > 75%

---

Molecular target: BRD9 (Homo sapiens)
Sequence (Q9H8M2 1-597): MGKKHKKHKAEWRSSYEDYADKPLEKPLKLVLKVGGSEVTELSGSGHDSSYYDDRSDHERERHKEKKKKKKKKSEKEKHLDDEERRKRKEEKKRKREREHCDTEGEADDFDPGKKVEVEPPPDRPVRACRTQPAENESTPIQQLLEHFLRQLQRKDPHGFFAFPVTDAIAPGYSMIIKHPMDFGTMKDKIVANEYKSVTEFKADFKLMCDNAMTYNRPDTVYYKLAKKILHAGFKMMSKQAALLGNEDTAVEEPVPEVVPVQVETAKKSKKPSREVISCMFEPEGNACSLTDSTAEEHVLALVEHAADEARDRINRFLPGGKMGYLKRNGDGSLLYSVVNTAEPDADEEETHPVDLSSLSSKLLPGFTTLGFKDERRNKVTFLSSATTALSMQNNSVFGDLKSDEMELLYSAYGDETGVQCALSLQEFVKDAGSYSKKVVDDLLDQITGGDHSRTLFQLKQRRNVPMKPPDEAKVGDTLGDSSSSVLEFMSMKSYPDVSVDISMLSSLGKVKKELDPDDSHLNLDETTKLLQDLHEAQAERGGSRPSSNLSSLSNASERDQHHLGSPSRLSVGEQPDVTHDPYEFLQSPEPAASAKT
Test: Degradation of BRD9 (IF), immunofluorescence in MV4-11 cells, 24 hours (Assay Protocol 2)
Assay type: cell-based
Parameters: A suspension of MV4-11 cells (ATCC CRL-9591) was prepared; host or cells: MV4-11
Details: Assay protocol 2; BRD9 degradation; read-out: DC50
READOUT NAME: DC50

Previously resolved entries follow.
COMPOUND	RECORDED RESULT
CCCC(c1ccc(C(=O)N(C)CCCCC(=O)N2CCN(Cc3c(OC)cc(-c4cn(C)c(=O)c(C)c4C)cc3OC)CC2)cc1)N(C)C(=O)/C(C#N)=C/c1nccs1 (mixture of isomers)	10 to 25 nM
COc1cc(-c2cn(C)c(=O)c(C)c2C)ccc1OC1CCC(Cc2cccc3c2CCN(C(=O)/C(C#N)=C/C(C)(C)N2CCN(C)CC2)C3C(C)C)CC1 (centres unmarked)	25 to 1000 nM
COc1cc(-c2cn(C)c(=O)c(C)c2C)cc(OC)c1CN1C[C@@H](C)N(C(=O)/C(C#N)=C/C(C)(C)C)C[C@@H]1C (mixture of isomers)	25 to 1000 nM
COc1cc(-c2cn(C)c(=O)c(C)c2C)cc(OC)c1CN1CCN(C(=O)c2cccc(C3CCCN3C(=O)/C(C#N)=C/c3nccs3)c2)CC1 (centres unmarked)	1.25 to 10 nM
COc1cc(-c2cn(C)c(=O)c(C)c2C)cc(OC)c1CN1CCN(Cc2cccc3c2CCN(C(=O)/C(C#N)=C/c2ccnc(C)n2)C3C)CC1 (mixture of isomers)	< 1.25 nM

The recorded DC50 for COc1cc(-c2cn(C)c(=O)c(C)c2C)cc(OC)c1CN1CCN(C(=O)COCCOc2ccc3c(c2)C(C)N(C(=O)/C(C#N)=C/c2nccs2)CC3)CC1 (mixture of isomers) is 1.25 to 10 nM

COc1cc(-c2cn(C)c(=O)c(C)c2C)cc(OC)c1CN1CCN(Cc2ccc3c(c2)[C@H](C(C)C)N(C(=O)/C(C#N)=C/C(C)(C)CF)CC3)C2(CC2)C1 (single isomer, unassigned) has a reported DC50 of 1.25 to 10 nM

The compound COc1cc(-c2cn(C)c(=O)c(C)c2C)cc(OC)c1CN1CCC(COc2cccc3c2CCN(C(=O)/C(C#N)=C/C(C)(C)C)C3C)CC1 (mixture of isomers) showed DC50 equal to 10 to 25 nM
